Source: patent US9593109B2

tgt: human GPR131 (Homo sapiens)
Construct: expressed in transfected cells
Sequence (Q8TDU6 whole entry): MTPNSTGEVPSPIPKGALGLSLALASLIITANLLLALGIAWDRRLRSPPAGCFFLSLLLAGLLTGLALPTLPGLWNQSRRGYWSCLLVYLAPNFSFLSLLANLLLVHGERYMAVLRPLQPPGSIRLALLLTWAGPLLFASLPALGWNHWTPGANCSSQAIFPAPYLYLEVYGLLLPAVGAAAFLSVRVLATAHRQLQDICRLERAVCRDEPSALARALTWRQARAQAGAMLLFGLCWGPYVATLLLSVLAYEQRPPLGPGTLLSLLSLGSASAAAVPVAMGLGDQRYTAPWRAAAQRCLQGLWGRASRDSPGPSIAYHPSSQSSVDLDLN
assay-explanation: Stimulation of cAMP (agonism of GPR131), FRET cAMP assay
Type: cell-based
experimental-context: 0.5 h; 1.1 μM compound; compared to maximal stimulatory activity of lithocholic acid (LCA) determined at 3.3 μM; stable cell line expressing human GPR131; 37° C. for 30 minutes; read-out: Percent Activity @ 1.1 μM (of 3.3 uM LCA) (%)
measured-parameter: activation at 1.1 µM (%)

{"compound": "Cn1ncc2c(-n3cnnc3-c3c(-c4cc(Cl)ccc4Cl)nc4ccccn34)cccc21 [Compound 545]", "measure-unit": "%", "value-measured": 90.9}
{"compound": "Cn1cnc2cc(-n3cnnc3-c3c(-c4cc(Cl)ccc4Cl)nc4ccccn34)ccc21 [Compound 521]", "measure-unit": "%", "value-measured": 81.6}
{"compound": "Clc1ccc(-n2ccnc2-c2c(-c3cc(Cl)ccc3Cl)nc3cccnn23)cc1 [Compound 561]", "measure-unit": "%", "value-measured": 100}
{"compound": "Cc1ccc(-n2cnnc2-c2c(-c3cc(Cl)ccc3Cl)nc3ccccn23)cn1 [Compound 540]", "measure-unit": "%", "value-measured": 96}
